target_of_assay: Orexin type 1 (OX1R) receptor (Homo sapiens, UniProt O43613)
Sequence (O43613 1-425): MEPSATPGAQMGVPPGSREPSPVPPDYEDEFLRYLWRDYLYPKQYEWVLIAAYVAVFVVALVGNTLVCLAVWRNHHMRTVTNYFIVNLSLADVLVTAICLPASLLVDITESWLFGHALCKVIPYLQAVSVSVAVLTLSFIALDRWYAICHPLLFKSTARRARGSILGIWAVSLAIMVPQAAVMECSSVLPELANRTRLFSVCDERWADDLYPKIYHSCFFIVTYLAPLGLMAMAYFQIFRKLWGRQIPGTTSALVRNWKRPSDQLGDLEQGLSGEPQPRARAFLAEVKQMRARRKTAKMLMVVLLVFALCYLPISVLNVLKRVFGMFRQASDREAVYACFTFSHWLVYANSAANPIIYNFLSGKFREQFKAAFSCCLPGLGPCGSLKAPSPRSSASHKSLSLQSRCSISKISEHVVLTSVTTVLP
protocol_notes: In vitro orexin antagonism assay: intracellular calcium measurement (FLIPR), orexin-A 3 nM as agonist
experimental_context: first value of IC50/Kb cell
Recorded pIC50 for the following molecules
Value format note: pIC50 is -log10 of concentration (mol/L); just state the number.

molecule	readout_label	test_value
O=C(c1nn2cccnc2c1-c1ccccc1)N1CCC[C@H]1Cn1ccc(-c2ccccc2)n1 [Example 136]	pIC50	8.05
O=C(c1c(-c2ccccc2F)nn2ccccc12)N1[C@H](Cn2ccc(-c3ccc(F)cn3)n2)C[C@@H]2C[C@@H]21 [Example 107]	pIC50	7.08
O=C(c1c(-c2ccccc2)nc2ccc(F)cn12)N1[C@H](Cn2ccc(-c3ccc(F)cc3)n2)C[C@@H]2C[C@@H]21 [Example 97]	pIC50	6.80

Lab note: need pIC50 with Orexin type 1 (OX1R) receptor (Homo sapiens, UniProt O43613) for entry O=C(c1nc2ccccn2c1-c1ccccc1)N1CCC[C@H]1Cc1nc(-c2ccccn2)no1 [Example 128] , please look it up.
8.15

Lab note: need pIC50 with Orexin type 1 (OX1R) receptor (Homo sapiens, UniProt O43613) for entry [2H]C1([2H])CC[C@@]([2H])(COc2ccc(C(F)(F)F)cn2)N1C(=O)c1nn2c(c1-c1ccccc1)COCC2 [Example 171] , please look it up.
8.00

Lab note: need pIC50 with Orexin type 1 (OX1R) receptor (Homo sapiens, UniProt O43613) for entry O=C(c1nc2ccccn2c1-c1ccccc1)N1CCC[C@H]1Cn1cc(-c2ccc(F)cn2)cn1 [Example 122] , please look it up.
8.00

Lab note: need pIC50 with Orexin type 1 (OX1R) receptor (Homo sapiens, UniProt O43613) for entry C[C@@]1(Cn2ccc(-c3ccccn3)n2)CCCN1C(=O)c1nn2ccccc2c1-c1ccccc1 [Example 150] , please look it up.
6.47
